Source listed as PubChem BioAssay.

Listed molecules paired with reported inhibition
# Method notes: growth suppression of yeast trafficking mutant, preliminary HTS, modulators of trafficking downstream of Golgi apparatus project, 1536-format plate, OD 615 nm (AID 637)
# Condition summary: yeast transport mutant growth, absorbance 615 nm, 18 h; stronger effect = higher value
Use % as the unit, but write only the number.

// solved cases for inhibition follow
Nn1c(SCC(=O)Nc2ccccc2)nnc1-c1cccnc1	3.64
O=C1C2ON(c3ccc(Cl)cc3)C(c3ccco3)C2C(=O)N1c1ccccc1 (stereo not drawn)	-3.61

--- query ---
**Query** Reported inhibition for CN(CC(O)COCc1cccs1)C1CCCCC1 (stereo not drawn) : what is it?
**Result** 5.57

====

# Method notes: SK-BR-3 cell growth inhibitors, pilot screen, 24 h, human (AID 572);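 further: compound exposure lasted between 18 and 24 h rather than exactly 24 h; 100% = carrier-treated control wells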
# Condition summary: SK-BR-3 viability, CellTiter-Glo luminescence, at 10 µM, stronger effect = lower value
Measured parameter: viability (%)
Report the value in % with no unit label.

**Query** Which value of viability has been reported for C=CCSc1nnc2n(-c3ccccc3OC)c(=O)c3c4c(sc3n12)CCC4 in the records?
**Result** 83.5

**Query** Field entry: Cn1c(C(=O)OCC(=O)NCC2CCCO2)cc2sccc21 (configuration not stated)
**Result** 85

**Query** Next record, please: COc1cc(C(Nc2ccc3c(c2)OCO3)C(=O)NC2CCCCC2)cc(OC)c1OC (configuration not stated)
**Result** 74.5

**Query** Please give the result for CCOC(=O)Cc1csc(NC(=O)CSc2nnc(C3CC3)n2C)n1 too.
**Result** 95

**Query** Entry COCCNC(=O)CN1CCC(NC(=O)Nc2ccc(C(F)(F)F)cc2)CC1 please
**Result** 92

====

Overview of recorded viability for various compounds
# Method notes: HUVEC growth inhibition – cell-based, human, primary screen (AID 575);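 further: 100% = median of untreated cell wells with 0.1% DMSO on each plate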
# Condition summary: HUVEC proliferation, CellTiter-Glo luminescence, 72 h; at 10 µM; stronger effect = lower value
Numbers only here, please. The scale is %.

COc1ccc(OC)c(-c2nc3c(C)n[nH]c(=O)c3[nH]2)c1	79.1

**Query** # lookup: viability of CCN(CC(=O)Nc1ccc2c(c1)CCC2)Cc1nc2ccccc2c(=O)[nH]1
**Result** 81.8

**Query** Again, but for CCc1ccccc1OCCCCN1CCCC1
**Result** 82

**Query** Then Cc1cc(NC(=O)C(C)(C)C)no1 ?
**Result** 92.7

**Query** Follow-up entry: COc1ccc(-n2nc(C(=O)NCC(=O)NCC3CCCO3)c3ccccc3c2=O)cc1 (configuration not stated)
**Result** 103

**Query** Further, for CC[C@]1(O)C[C@@H]2CN(CCc3c([nH]c4ccccc34)[C@@](C(=O)OC)(c3cc4c(cc3OC)N(C)[C@H]3[C@@](O)(C(=O)OC)[C@H](OC(C)=O)[C@]5(CC)C=CCN6CC[C@]43[C@@H]65)C2)C1 ?
**Result** 10.5

**Query** Same thing, different compound: CCOC(=O)Cc1nnc2c(Nc3ccccc3F)nc3nonc3n12
**Result** 36.9

**Query** Likewise for C=C(C)Cn1c(CCCNC(=O)C(C)(C)C)nc2ccccc21 ?
**Result** 92.9

**Query** Also COCCn1c(CN2CCN(c3ccccc3F)CC2)nc2c1c(=O)n(C)c(=O)n2C ?
**Result** 84.5

**Query** Same question, COCCOC(=O)c1cc(C(=O)c2cc(F)ccc2O)coc1=N this time
**Result** 92

**Query** Can you check COC(=O)CS(=O)(=O)c1nnc([C@H](Cc2ccccc2)NC(=O)OC(C)(C)C)o1 next?
**Result** 3.82

**Query** Query CC1CN(c2nc3ccccc3nc2C(C#N)C(=O)OC2CCCCC2)CC(C)O1 (configuration not stated) next
**Result** 78.7

**Query** Another compound to look at: CN1[C@@H](CC(=O)c2ccccc2)CCC[C@H]1C[C@H](O)c1ccccc1
**Result** 81.4

**Query** And for CNC[C@H](O)c1cccc(O)c1 ?
**Result** 93.7

**Query** Try this compound too: CCOC(=O)c1[nH]c(C)c(C(=O)Nc2ccccc2F)c1C
**Result** 61.8

**Query** // repeat for O=S(=O)(NCC1CCCO1)c1ccc(S(=O)(=O)N2CCc3ccccc3C2)cc1 (configuration not stated) and report
**Result** 94.9

**Query** Try the compound O=C(OCc1cccs1)c1ccccc1NS(=O)(=O)c1ccc2c(c1)OCCO2
**Result** 121

====

Entries and their measured viability follow.
# Method notes: reversal of MRP1-mediated doxorubicin resistance, pilot screen, H69AR cells, doxorubicin co-treatment (AID 601)
# Condition summary: H69AR cells + 2 uM doxorubicin, CellTiter-Glo, 72 h; measured here: viability with 2 uM doxorubicin; at 10 µM; stronger effect = lower value
Field: numeric (%). Do not append units.

**Query** What does the data say about its viability? Entry: COc1ccc(-c2[nH]nc3c2C(c2ccncc2)C(C#N)=C(N)O3)cc1 (stereo not drawn)
**Result** 90

====

# Method notes: reversal of MRP1-mediated doxorubicin resistance, pilot screen, H69AR cells, doxorubicin co-treatment (AID 601)
# Condition summary: H69AR cells, CellTiter-Glo, 72 h; compound alone cytotoxicity; at 10 µM
Label key: 1 means viability under 90%; -1 means viability of 90% or more.

CCCN(CCC)C(=O)CC(c1ccc(F)cc1)c1ccco1 (centres undefined)	1
CCOC(=O)C1=C(N)OC2=C(C(=O)CC(C)(C)C2)C1c1ccoc1 (centres undefined)	-1

**Query** Record CCOC(=O)N1CCC(NC(=O)c2ccc3nc(N4CCOCC4)sc3c2)CC1 : is its viability strictly below 90%?
**Result** -1

**Query** Again, but for COc1ccc(C(=O)CSc2nnc(CNc3ccc(C)cc3C)o2)cc1
**Result** 1

**Query** Likewise for CC[C@H](C)C(=O)O[C@H]1C[C@@H](C)C=C2C=C[C@H](C)[C@H](CC[C@@H]3C[C@@H](O)CC(=O)O3)[C@H]21 ?
**Result** 1

====

Reported inhibition values are given for each entry in this list.
# Method notes: growth suppression of yeast trafficking mutant, preliminary HTS, modulators of trafficking downstream of Golgi apparatus project, 1536-format plate, OD 615 nm (AID 637)
# Condition summary: yeast transport mutant growth, absorbance 615 nm, 18 h; stronger effect = higher value
I only need the number, in %, no unit after it.

**Query** Data request, read-out inhibition, for Cc1ccc(Nc2nc(CSc3nnc(-c4cccs4)o3)cs2)cc1
**Result** -2.22

**Query** What would you report for CCN(CC)CCOC(=O)c1ccc(NC(=O)COc2cc(=O)n(CC)c3ccccc23)cc1 ?
**Result** -10

**Query** Next compound: Nc1nonc1-n1nnc(C(=O)c2ccccc2)c1-c1ccccc1
**Result** 6.03

**Query** Field entry: CCOC(=O)Cn1nnc(-c2ccc(SC)cc2)n1
**Result** -4.36

**Query** Next up: O=C(CSc1ccc(-c2ccccc2)nn1)N1CCOCC1
**Result** -4.73

**Query** Quick one: CC(C)(C)N=C1NC(=NC(C)(C)C)c2ccccc21
**Result** -7.64

**Query** Repeat for the following compound: C=C(C)Cn1c(CCNC(=O)CC)nc2ccccc21
**Result** -0.63

**Query** # repeat for CC(C)(C)c1ccc2c(c1)OCC(C(=O)O)O2 (stereo not given)
**Result** -3.65

**Query** Also check O=C(CSc1nnc(-c2ccccc2)o1)N1CCN(c2ccccc2)CC1
**Result** 1.75

====

# Method notes: SK-BR-3 cell growth inhibitors, pilot screen, 24 h, human (AID 572);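 further: compound exposure lasted between 18 and 24 h rather than exactly 24 h; 100% = carrier-treated control wells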
# Condition summary: SK-BR-3 viability, CellTiter-Glo luminescence, at 10 µM, stronger effect = lower value
Activity calls are given as the source filed them.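 The calls were made as follows: active = viability at or below 10% of carrier control in both of two separate runs; inconclusive = viability at or below 10% in only one of the two runs; inactive = the rest.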
Property: viability; scope: individual molecules

# count of solved cases: 6
c1ccc(Cn2nnnc2CN2CCCC2)cc1	112% (inactive)
O=C(Cc1ccc(Br)cc1)N1CCCCCC1	108% (inactive)
Cc1ccc(-c2ccc(=O)n(CC(=O)NCCCN3CCCCC3C)n2)cc1 (stereo not drawn)	97% (inactive)
CC(C)Oc1ccc2c(=O)c(-c3ccccc3)coc2c1	121% (inactive)
Nc1ccc(S(=O)(=O)Nc2ccccn2)cc1	143% (inactive)
COc1ccc(C2C=C(c3ccccc3)Nc3ncnn32)cc1 (stereo not drawn)	92.5% (inactive)

**Query** Form field: reported viability of COc1ccc(C)cc1C(=O)CCC(=O)Nc1ccccc1N1CCOCC1
**Result** 90% (inactive)

**Query** Cool, now Cc1cc(C)n(-c2nc3c(c(=O)[nH]c(=O)n3C)n2Cc2ccc(F)cc2)n1
**Result** 93% (inactive)

====

Catalogue of inhibition values
# Method notes: growth suppression of yeast trafficking mutant, preliminary HTS, modulators of trafficking downstream of Golgi apparatus project, 1536-format plate, OD 615 nm (AID 637)
# Condition summary: yeast transport mutant growth, absorbance 615 nm, 18 h; stronger effect = higher value
All answers are understood in %, so give the number only.

CC(=O)C1=C(C)OC(N)=C(C#N)C1c1ccncc1 (stereo not given)	5.41

**Query** State the recorded inhibition for this entry: N#CCc1ccc(NC(=O)Nc2cccc(Cl)c2)cc1
**Result** 2.73

**Query** And for c1cncc(-c2nc3c4ccccc4nc(N4CCC(N5CCCCC5)CC4)n3n2)c1 ?
**Result** -0.48

**Query** # repeat for CC(C)c1ccc(-c2nc(N3CCOCC3)[nH]c(=O)c2C#N)cc1
**Result** 3.33

**Query** Field entry: C=CCn1c(SCC(=O)Nc2cccc(OC)c2)nnc1-c1cccnc1
**Result** 3.33
